# Protocol Details: chemical genetic growth profiling, strain panel (AID 1159580);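 further: tested at 20 µM; growth read once vehicle control cultures reached saturation at 30 °C; 1 = growth at the plate median or of vehicle wells; lower values mean less growth of the strain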
# Study Conditions: S. cerevisiae deletion strains, growth OD, locus YHR027C, strain rpn1, active compounds read low
In all, about 5,500 compounds went through this assay and about 2,000 (36%) were called active. About 18% were inconclusive and are not listed. This is one part of the list.
Known normalized growth of a selection of molecules
Give the value as a plain number.

Solved cases (5 shown):
{"Molecule": "COC(=O)C[C@H]1C2(C)CC34OC5(C)O[C@@]6([C@H](OC)C(OC(=O)C(C)C)[C@]7(C)C(/C(=C(/OC)C(C)C)C(=O)O[C@H]7c7ccoc7)[C@@]6(O5)[C@H](OC)[C@@]3(OC)C2OC(C)=O)[C@]14C (stereo not given in full)", "normalized growth": 0.994}
{"Molecule": "COc1ccc2c(c1)OC1(O)COc3cc(OC)c(OC)cc3C1=C2 (stereo not given)", "normalized growth": 0.986}
{"Molecule": "O=c1cccc2ccc(O)c(O)c2c1O", "normalized growth": 0.841}
{"Molecule": "COc1ccc([C@H]2Oc3c(I)c(OC)cc(OC)c3C[C@@H]2O)cc1OC", "normalized growth": 1.01}
{"Molecule": "Oc1cc(O)c2c(c1)O[C@H](c1cc(O)c(O)c(O)c1)[C@H](O)C2", "normalized growth": 1.02}

Request: Indicate the recorded normalized growth value for this molecule: CCCCCCCCCCC[C@@H](C[C@H]1OC(=O)[C@H]1CCCCCC)OC(=O)[C@@H](CC(C)C)NC=O
Result: 1.05

Request: Please report the measured normalized growth for Cc1ccc(C(=O)Nc2ccc(S(=O)(=O)O)c3cc(S(=O)(=O)O)cc(S(=O)(=O)O)c23)cc1NC(=O)c1cccc(NC(=O)Nc2cccc(C(=O)Nc3cc(C(=O)Nc4ccc(S(=O)(=O)O)c5cc(S(=O)(=O)O)cc(S(=O)(=O)O)c45)ccc3C)c2)c1
Result: 1.03

Request: Output measured normalized growth for this item: C=C1CCC2[C@](C)(CO)[C@H](O)CC[C@@]2(C)[C@@H]1C/C=C1/C(=O)OC[C@H]1O (stereo not given in full)
Result: 0.976

Request: Give normalized growth for the following molecule: CCC(C)C(=O)O[C@@H]1C[C@@]2(C)[C@H](c3ccoc3)OC(=O)CC23OC2(C)O[C@]14[C@]1(C)[C@@H](CC(=O)OC)C5(C)CC1(O)[C@](O)(C5OC(=O)C1(C)OC1C)[C@@H](OC(C)=O)[C@]34O2 (stereo not given in full)
Result: 0.996

Request: Supply reported normalized growth belonging to this molecule: COc1cc(CNC(=O)CCCC/C=C/C(C)C)ccc1O
Result: 0.984

Request: In one line, give reported normalized growth of the entry Oc1ccc2c(c1)O[C@H](c1ccc(O)c(O)c1)[C@@H](O)C2 .
Result: 1.02

Request: Consider the molecule Oc1cc(O)c2c(c1)O[C@H](c1ccc(O)c(O)c1)[C@@H](O)C2 . State its measured normalized growth.
Result: 1.01

====

# Protocol Details: chemical genetic growth profiling, strain panel (AID 1159580);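 further: tested at 20 µM; growth read once vehicle control cultures reached saturation at 30 °C; 1 = growth at the plate median or of vehicle wells; lower values mean less growth of the strain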
# Study Conditions: S. cerevisiae deletion strains, growth OD, locus YDR335W, strain msn5
The campaign covered roughly 5,500 compounds. About 2,000 (36%) were called active. Roughly 18% stayed inconclusive and do not appear here. No stated cut-off is given here; in the data, active means normalized growth mostly below about 0.91 (no sharp cut-off); inconclusive means no clear call, values can overlap the other calls; inactive means mostly above about 0.92. This is one part of the list.
One label from this list, please: active, inactive

Example cases with answers are listed next.
{"Molecule": "COC(=O)C[C@H]1C2(C)CC34OC5(C)O[C@@]6([C@H](OC)C(OC(=O)C(C)C)[C@]7(C)C(/C(=C(/OC)C(C)C)C(=O)O[C@H]7c7ccoc7)[C@@]6(O5)[C@H](OC)[C@@]3(OC)C2OC(C)=O)[C@]14C (stereo partly specified)", "Answer Label": "inactive"}
{"Molecule": "NCCc1cnc[nH]1", "Answer Label": "inactive"}
{"Molecule": "C#CCCCCCCCCCCCc1ccco1", "Answer Label": "inactive"}
{"Molecule": "N[C@@H](Cc1ccc(N(CCCl)CCCl)cc1)C(=O)O", "Answer Label": "inactive"}
{"Molecule": "O=C1CCC(N2C(=O)c3ccccc3C2=O)C(=O)N1 (stereo unspecified)", "Answer Label": "inactive"}

Request: Tell me the recorded outcome of this test for C[n+]1c2cc(N)ccc2cc2ccc(N)cc21 .
Result: active

Request: I would be grateful if you could indicate the recorded call for CCCCC/C=C/CCC(=O)N[C@H]1[C@H](Oc2c3cc4cc2Oc2ccc(cc2Cl)[C@@H](O[C@@H]2O[C@H](CO)[C@@H](O)[C@H](O)[C@H]2NC(C)=O)[C@@H]2NC(=O)[C@H](NC(=O)[C@@H]4NC(=O)[C@H]4NC(=O)C(Cc5ccc(c(Cl)c5)O3)NC(=O)[C@H](N)c3ccc(O)c(c3)Oc3cc(O)cc4c3)c3ccc(O)c(c3)-c3c(OC4O[C@H](CO)[C@@H](O)[C@H](O)[C@@H]4O)cc(O)cc3[C@@H](C(=O)O)NC2=O)O[C@H](CO)[C@@H](O)[C@@H]1O (stereo partly specified) .
Result: inactive

Request: Record lookup: outcome of this test for CCN(CC)C(=O)N1CCN(C)CC1 ?
Result: inactive

Request: Which outcome was assigned to CC[C@@]1(O)C[C@H](O)c2c(cc3c(c2O)C(=O)c2c(O)ccc(O)c2C3=O)[C@H]1C(=O)OC in this test?
Result: inactive

Request: How did this test come out for O=C(O[C@@H]1Cc2c(O)cc(O)cc2O[C@@H]1c1cc(O)c(O)c(O)c1)c1cc(O)c(O)c(O)c1 ?
Result: active

Request: Would you mind telling me which call this test gave C=CCc1ccc(O)c(OC)c1 ?
Result: inactive

Request: Could you please tell me the result logged for CC[C@@]1(O)C[C@H](O[C@H]2C[C@H](N(C)C)[C@H](O)[C@H](C)O2)c2c(cc3c(c2O)C(=O)c2c(O)ccc(O)c2C3=O)[C@H]1C(=O)OC in this assay?
Result: active

Request: I would be grateful if you could indicate the recorded call for Cc1ncc(CNC(=O)N(CCCl)N=O)c(N)n1 .
Result: inactive

Request: Look up the recorded call for Cn1c(=O)c2c(ncn2CC(O)CO)n(C)c1=O (stereo unspecified) in this test.
Result: inactive

Request: What classification did CC[C@@]1(O)C[C@H](O[C@H]2C[C@H](N(C)C)[C@H](O)[C@H](C)O2)c2c(cc3c(c2O)C(=O)c2c(O)cccc2C3=O)[C@H]1C(=O)OC end up with in this test?
Result: active

Request: So what was the verdict on O=C(Oc1cc(O)cc2c1C[C@@H](OC(=O)c1cc(O)c(O)c(O)c1)[C@@H](c1cc(O)c(O)c(O)c1)O2)c1cc(O)c(O)c(O)c1 in this test?
Result: inactive

====

# Protocol Details: chemical genetic growth profiling, strain panel (AID 1159580);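 further: tested at 20 µM; growth read once vehicle control cultures reached saturation at 30 °C; 1 = growth at the plate median or of vehicle wells; lower values mean less growth of the strain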
# Study Conditions: S. cerevisiae deletion strains, growth OD, locus YBR171W, strain sec66, active compounds read low
In all, about 5,500 compounds went through this assay and about 2,000 (36%) were called active. Inconclusive results (about 18%) are left out. This is one part of the list.
# normalized growth values compiled below

Solved entries (count: 2):
{"Compound": "O=C(O)/C=C/c1ccc(O)c(O)c1", "normalized growth": "1 (inactive)"}
{"Compound": "O=C(/C=C/c1ccc(O)c(O)c1)OCCc1ccccc1", "normalized growth": "0.911 (inactive)"}

Let us move to another entry and its normalized growth.
Request: Identify measured normalized growth corresponding to O=C(/C=C/c1ccc(O)c(O)c1)OC(Cc1ccc(O)c(O)c1)C(=O)O (stereo not drawn)
Result: 1.01 (inactive)

====

# Protocol Details: chemical genetic growth profiling, strain panel (AID 1159580);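 further: tested at 20 µM; growth read once vehicle control cultures reached saturation at 30 °C; 1 = growth at the plate median or of vehicle wells; lower values mean less growth of the strain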
# Study Conditions: S. cerevisiae deletion strains, growth OD, locus YOR083W, strain WHI5 (second series), active compounds read low
In all, about 5,500 compounds went through this assay and about 2,000 (36%) were called active. Another 18% or so got no clear call; they are omitted. The list shows a part of the results.
Form field: normalized growth (one value per entry).
Write no unit; give the number alone.

{"Compound": "Nc1cc(=O)[nH]c(N)n1", "normalized growth": 1.02}
{"Compound": "N=C(N)SCCc1cnc[nH]1", "normalized growth": 0.988}
{"Compound": "COc1cc(C(O)CO)ccc1O (stereo not drawn)", "normalized growth": 1.08}
{"Compound": "Fc1ccc(C(OCCN2CCN(CCCc3ccccc3)CC2)c2ccc(F)cc2)cc1", "normalized growth": 0.903}
{"Compound": "COC(=O)C1C(O)CCC2CN3CCc4c([nH]c5ccccc45)C3CC21 (stereo not drawn)", "normalized growth": 1}
{"Compound": "CC#C[C@]1(O)CC[C@H]2[C@@H]3CCC4=CC(=O)CCC4=C3[C@@H](c3ccc(N(C)C)cc3)C[C@@]21C", "normalized growth": 0.991}
{"Compound": "C[N+](C)(C)CCC(=O)c1cccc2ccccc12", "normalized growth": 0.231}
{"Compound": "O=P(O)(O)C(Cl)(Cl)P(=O)(O)O", "normalized growth": 0.973}

Kindly review the next compound as well.
Request: Give normalized growth for CC12NC(Cc3ccccc31)c1ccccc12 (stereo not drawn)
Result: 1
